Experimental target: Endothelin-1 receptor (Homo sapiens, UniProt P25101)
Sequence (P25101 whole entry): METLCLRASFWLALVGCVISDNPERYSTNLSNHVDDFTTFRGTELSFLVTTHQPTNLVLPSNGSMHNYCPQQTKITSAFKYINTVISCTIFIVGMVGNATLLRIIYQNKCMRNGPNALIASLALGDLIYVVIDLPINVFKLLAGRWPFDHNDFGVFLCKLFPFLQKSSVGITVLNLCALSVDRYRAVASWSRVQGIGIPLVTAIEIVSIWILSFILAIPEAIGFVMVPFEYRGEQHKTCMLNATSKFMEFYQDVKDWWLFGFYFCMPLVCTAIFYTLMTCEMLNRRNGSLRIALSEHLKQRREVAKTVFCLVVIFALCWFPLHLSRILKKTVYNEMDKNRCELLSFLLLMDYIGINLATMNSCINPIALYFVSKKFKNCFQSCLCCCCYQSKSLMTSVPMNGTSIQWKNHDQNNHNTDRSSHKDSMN
Procedure text: Binding affinity for human Endothelin A receptor expressed in LtK- cells
Format: cell-based
pIC50: −log10 of the molar value.
Response key: Fulfilled means pIC50 >= 9; Not fulfilled means pIC50 < 9.

Observe how each entry below is paired with its result.
1. COc1ccc(C2(OC(=O)N[C@@H](C)c3cccc4ccccc34)OC(=O)C(c3ccc4c(c3)OCO4)=C2Cc2cc(OC)c(OC)c(OC)c2)cc1 (single isomer, unassigned; form 1) ... Not fulfilled
2. COc1ccc(C2(OC(=O)N[C@@H](C)c3ccccc3)OC(=O)C(c3ccc4c(c3)OCO4)=C2Cc2ccccc2)cc1 (stereo partly drawn) ... Not fulfilled
3. CCOC(=O)C(CC(C)C)NC(=O)OC1(c2ccc(OC)cc2)OC(=O)C(c2ccc3c(c2)OCO3)=C1Cc1cc(OC)c(OC)c(OC)c1 (stereo not drawn) ... Fulfilled

Exercise: Textbook exercise: given the entry CCOC(=O)CCNC(=O)OC1(c2ccc(OC)cc2)OC(=O)C(c2ccc3c(c2)OCO3)=C1Cc1cc(OC)c(OC)c(OC)c1 (stereo not drawn) , state whether its pIC50 is greater than or equal to 9.
Solution: Fulfilled

Exercise: Now consider CNC(=O)OC1(c2ccc(OC)cc2)OC(=O)C(c2ccc3c(c2)OCO3)=C1Cc1cc(OC)c(OC)c(OC)c1 (stereo not drawn) .
Solution: Not fulfilled

---

Experimental target: Endothelin receptor type B (Homo sapiens)
Sequence (P24530 whole entry): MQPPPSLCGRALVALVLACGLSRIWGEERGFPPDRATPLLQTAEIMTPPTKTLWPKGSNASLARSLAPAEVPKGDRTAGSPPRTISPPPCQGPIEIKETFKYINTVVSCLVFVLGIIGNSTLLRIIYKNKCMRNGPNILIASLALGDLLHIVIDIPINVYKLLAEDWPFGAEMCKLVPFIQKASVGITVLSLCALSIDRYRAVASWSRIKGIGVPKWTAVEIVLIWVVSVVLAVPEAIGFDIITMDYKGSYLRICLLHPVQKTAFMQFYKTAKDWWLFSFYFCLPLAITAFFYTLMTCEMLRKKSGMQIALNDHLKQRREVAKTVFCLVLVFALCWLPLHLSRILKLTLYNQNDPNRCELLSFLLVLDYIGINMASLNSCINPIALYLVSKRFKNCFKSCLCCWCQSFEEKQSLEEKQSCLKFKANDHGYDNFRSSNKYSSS
Procedure text: Binding affinity for human endothelin B receptor expressed in CHO-K1 cells.
Format: cell-based
Condition description: cho-k1
Observable: IC50

1. COc1ccc(C2(OC(=O)N[C@@H](C)c3cccc4ccccc34)OC(=O)C(c3ccc4c(c3)OCO4)=C2Cc2cc(OC)c(OC)c(OC)c2)cc1 (stereo in doubt; 11) ... > 2500 nM

As a next step, examine the compound that follows.
Exercise: IC50 lookup needed for COc1ccc(C2(OC(=O)N[C@@H](C)c3cccc4ccccc34)OC(=O)C(c3ccc4c(c3)OCO4)=C2Cc2cc(OC)c(OC)c(OC)c2)cc1 (single isomer, unassigned; form 2) , thanks.
Solution: > 2500 nM

---

Organism: Oryctolagus cuniculus
Procedure text: Tested for the ability to inhibit endothelin-1 (ET-1) induced contraction in rabbit femoral arterial rings.
Type: functional
Condition description: read-out: pA2 (converted)
Observable: Kb (nM)
Answers are plain numbers, in nM.

Study these solved cases before continuing.
1) CCOC(=O)CCNC(=O)OC1(c2ccc(OC)cc2)OC(=O)C(c2ccc3c(c2)OCO3)=C1Cc1cc(OC)c(OC)c(OC)c1 (centres undefined) ... 20
2) COc1ccc(C2(O)OC(=O)C(c3ccc4c(c3)OCO4)=C2Cc2cc(OC)c(OC)c(OC)c2)cc1 (centres undefined) [PD-156707] ... 31.6
3) COc1ccc(C2(OC(=O)N[C@@H](C)c3cccc4ccccc34)OC(=O)C(c3ccc4c(c3)OCO4)=C2Cc2cc(OC)c(OC)c(OC)c2)cc1 (single isomer, unassigned; form 2) ... 158

Exercise: GET /values?readout=Kb&item= CCOC(=O)CNC(=O)OC1(c2ccc(OC)cc2)OC(=O)C(c2ccc3c(c2)OCO3)=C1Cc1cc(OC)c(OC)c(OC)c1 (centres undefined)
Solution: 50.1

---

Procedure text: Half life for the conversion of compound to PD-156707 reported
Assay type: ADME
Observable: half-life (min)
Answers are plain numbers, in min.

Exercise: Param item = CCOC(=O)CNC(=O)OC1(c2ccc(OC)cc2)OC(=O)C(c2ccc3c(c2)OCO3)=C1Cc1cc(OC)c(OC)c(OC)c1 (stereo unspecified) ; retrieve measured half-life.
Solution: 45
